// data source = the RNAGym collection of RNA variant scans (doi:10.1002/anie.201605470)

B1: Osa-1-4 twister ribozyme (parent)
chain: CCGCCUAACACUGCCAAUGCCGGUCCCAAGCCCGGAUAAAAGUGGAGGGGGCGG

- Variants of: B1
- METHOD: self-cleavage, relative activity (ratio to wild type); higher = more cleavage; co-transcriptional
# reported self-cleavage; entries follow
No unit in the answer, please; the number alone is enough.

Below, 2 variants whose answers are already recorded.
INSERT INTO results (variant_key, recorded_value) VALUES
  ('A40G G51A', 0.25),
  ('A16U G30C', 0.04);

(Q) # get_value(readout='self-cleavage', item= A28U A36G )
(A) 0.99

(Q) # get_value(readout='self-cleavage', item= C25G U43A )
(A) 0.08

(Q) # get_value(readout='self-cleavage', item= C14A C32G )
(A) 0.03
